Reference source for all entries: PubChem BioAssay (NCATS)

# procedure details: Primary qHTS for inhibitors of nuclear receptor binding SET domain protein 2 (NSD2) in an isogenic RCH-ACV NSD2 p.E1099K mutant (9B) (AID 1645876); also: nearly all actives have a fitted effect of over 70% in size
# condition: RCH-ACV (leukaemia line) NSD2 E1099K (9B) viability, CellTiter-Glo, 72 h; series mostly up to 44.9 µM
Inconclusive results are not listed. Calls of active or inactive are those of the source. Calls follow the shape of the dose curve; as a rule, active = well fitted inhibition curve with a large enough effect; inconclusive = small, poorly fitted or top-dose-only effect; inactive = flat fitted curve, though single readings scatter.
Form entry, call: pick from active, inactive

Example entries and their recorded answers appear below.
* O=C(OCc1ccccc1)c1ccccc1 | inactive
* CC(C(=O)O)c1ccc(C(=O)c2ccccc2)s1 (configuration not stated) | inactive
* CCCCCCCCCCCC(=O)[O][Sn]([CH2]CCC)([CH2]CCC)[O]C(=O)CCCCCCCCCCC | inactive
* N=C(N)N | inactive
* Nc1nc2ccc([N+](=O)[O-])cc2s1 | active
* CC(C)(C)c1nnc(NS(=O)(=O)c2ccc(N)cc2)s1 | inactive

QUERY: Could you kindly confirm the outcome this assay logged for Cc1ccc(O)c(-n2nc3ccccc3n2)c1 ?
RESULT: inactive

###

# Tested on: CP335
# procedure details: qHTS profiling for inhibitors of Plasmodium falciparum proliferation (AID 504749); also: nearly all actives have a fitted effect of over 60% in size
# condition: P. falciparum in erythrocytes, SYBR Green DNA, 72 h; series mostly up to 28.7 µM
Inconclusive results are not listed. Active and inactive are the calls of the source. Calls come from the whole dose curve; as a rule, active = well fitted inhibition curve with a large enough effect; inconclusive = small, poorly fitted or top-dose-only effect; inactive = flat fitted curve, though single readings scatter.
Form entry, call: pick from active, inactive

* Nc1ccc(O)c(C(=O)O)c1 | inactive
* COc1ccc(-c2cc(=S)ss2)cc1 | inactive
* C[S+](CC[C@H](N)C(=O)O)C[C@H]1O[C@@H](n2cnc3c(N)ncnc32)[C@H](O)[C@@H]1O (stereo partly specified) | inactive

QUERY: Could you kindly confirm the outcome this assay logged for O=C(O)[C@H](CC(=O)N1C[C@H]2CCCC[C@H]2C1)Cc1ccccc1 ?
RESULT: inactive

QUERY: Follow-up item: CN(C)c1ccc(C(=C2C=CC(=[N+](C)C)C=C2)c2ccccc2)cc1
RESULT: active

QUERY: Follow-up item: CCCCCCCCCCCC(=O)[O][Sn]([CH2]CCC)([CH2]CCC)[O]C(=O)CCCCCCCCCCC
RESULT: inactive

QUERY: Follow-up item: CN1[C@@H]2CC[C@H]1CC(OC(=O)C(CO)c1ccccc1)C2 (stereo partly specified)
RESULT: inactive

QUERY: Follow-up item: CCCCCCCCCCCCCCCCCC(=O)O
RESULT: inactive

QUERY: Follow-up item: Cc1c(Nc2ncccc2C(=O)O)cccc1C(F)(F)F
RESULT: inactive

QUERY: Follow-up item: CC1(C)C[C@@H]1C(=O)N/C(=C\CCCCSC[C@H](N)C(=O)O)C(=O)O
RESULT: inactive

QUERY: Follow-up item: CC(C(=O)O)c1ccc2c(c1)[nH]c1ccc(Cl)cc12 (stereo unspecified)
RESULT: inactive

QUERY: Follow-up item: COc1cc(/C=C/C(=O)N2CCN(CC(=O)N3CCCC3)CC2)cc(OC)c1OC
RESULT: inactive

QUERY: Follow-up item: CCCCCC[C@@H](O)C/C=C\CCCCCCCC(=O)O
RESULT: inactive

QUERY: Follow-up item: CCCCCCCCCCCCCCCC(=O)OC(C)C
RESULT: inactive

QUERY: Follow-up item: Cc1ccc(O)c(-n2nc3ccccc3n2)c1
RESULT: inactive

QUERY: Follow-up item: Cc1ccccc1CNc1ncnc2c1ncn2C1OC(CO)C(O)C1O (stereo unspecified)
RESULT: inactive

QUERY: Follow-up item: COc1ccc(/C=C/C(=O)Nc2ccccc2C(=O)O)cc1OC
RESULT: inactive

QUERY: Follow-up item: CC1(C)S[C@@H]2[C@H](NC(=O)[C@H](NC(=O)N3CCN(S(C)(=O)=O)C3=O)c3ccccc3)C(=O)N2[C@H]1C(=O)O
RESULT: inactive
